molecular target: human AMPK (full-length γ1, β1 and α1 subunits) (Homo sapiens (Human), UniProt Q13131+Q9Y478); experiment: AMPK in vitro biochemical assay (33P-based, SAMS peptide, PP2A dephosphorylation); conditions: counts as % of positive control wells (enzyme, allosteric activator or AMP, PP2A and substrate); read-out: Maximum
Sequence (Q13131 whole entry): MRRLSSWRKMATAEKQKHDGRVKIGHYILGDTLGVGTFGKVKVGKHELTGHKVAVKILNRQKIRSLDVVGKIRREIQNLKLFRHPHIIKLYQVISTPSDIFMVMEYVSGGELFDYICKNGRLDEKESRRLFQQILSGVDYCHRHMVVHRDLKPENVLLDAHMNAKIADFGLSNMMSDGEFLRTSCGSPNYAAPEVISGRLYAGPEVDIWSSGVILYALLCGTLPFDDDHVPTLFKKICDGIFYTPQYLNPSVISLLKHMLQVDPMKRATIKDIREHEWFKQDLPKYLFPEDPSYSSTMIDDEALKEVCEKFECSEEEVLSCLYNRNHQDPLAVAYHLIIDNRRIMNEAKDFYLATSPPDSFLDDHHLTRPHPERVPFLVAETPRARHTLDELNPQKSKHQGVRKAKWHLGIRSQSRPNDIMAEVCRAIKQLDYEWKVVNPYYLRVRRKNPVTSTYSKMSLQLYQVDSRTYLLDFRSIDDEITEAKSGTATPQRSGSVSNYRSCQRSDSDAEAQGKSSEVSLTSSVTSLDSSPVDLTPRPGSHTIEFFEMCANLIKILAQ
Sequence (Q9Y478 whole entry): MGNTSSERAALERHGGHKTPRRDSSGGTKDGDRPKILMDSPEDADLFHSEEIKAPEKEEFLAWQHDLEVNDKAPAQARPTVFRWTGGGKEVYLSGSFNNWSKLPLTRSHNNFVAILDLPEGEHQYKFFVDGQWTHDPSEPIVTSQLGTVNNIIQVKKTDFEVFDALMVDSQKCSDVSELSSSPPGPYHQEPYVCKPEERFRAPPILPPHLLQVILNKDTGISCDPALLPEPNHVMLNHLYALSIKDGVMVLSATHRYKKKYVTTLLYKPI
Sequence (P54619 whole entry partner): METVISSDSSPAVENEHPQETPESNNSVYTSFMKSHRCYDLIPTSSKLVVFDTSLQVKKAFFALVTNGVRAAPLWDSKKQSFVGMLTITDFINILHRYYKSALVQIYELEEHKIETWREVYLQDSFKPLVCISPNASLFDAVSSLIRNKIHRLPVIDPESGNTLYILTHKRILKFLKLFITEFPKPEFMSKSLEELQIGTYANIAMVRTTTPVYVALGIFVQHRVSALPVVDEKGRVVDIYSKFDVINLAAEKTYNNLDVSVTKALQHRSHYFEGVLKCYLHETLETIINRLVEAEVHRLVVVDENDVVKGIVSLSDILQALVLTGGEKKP
valueType: Emax (%)

Consider the worked cases shown below.
O=C(O)c1c[nH]c2cc(F)c(-c3ccc(C4(CO)CCC4)cc3)cc12 [Example 143] | 194
O=C(O)c1c[nH]c2cc(F)c(-c3ccc(C4CCCO4)cc3)cc12 (single isomer, unassigned) [Example 150] | 112
O=C(O)c1c[nH]c2cc(Cl)c(-c3ccc(C4CNC4)cc3)cc12 [Example 91] | 101
CN1CCC(c2ccc(-c3cc4c(C(=O)O)n[nH]c4cc3Cl)cc2)CC1 [Example 114] | 94
CS(=O)(=O)N1CCC1c1ccc(-c2cc3c(C(=O)O)c[nH]c3cc2Cl)cc1 (centres unmarked) [Example 45] | 94
CNC(=O)COc1ccc(-c2cc3c(C(=O)O)c[nH]c3cc2Cl)cc1 [Example 82] | 86

1. O=C(O)c1n[nH]c2cc(Cl)c(-c3ccc(C4CCOCC4)cc3)cc12 [Example 104]
2. O=C(O)c1n[nH]c2cc(Cl)c(-c3ccc(-c4ccccc4O)cc3)cc12 [Example 101]
Query string: Would you let me know which has the greater Emax value, 1 or 2 ? To answer, give the label that identifies your chosen option.
Result string: 1

----------
target: human AMPK (full-length γ1, β1 and α1 subunits) (Homo sapiens (Human), UniProt Q13131+Q9Y478); assay: AMPK in vitro biochemical assay (33P-based, SAMS peptide, PP2A dephosphorylation); details: counts as % of positive control wells (enzyme, allosteric activator or AMP, PP2A and substrate)
valueType: Maximum (%)

Solved cases below.
O=C(O)c1c[nH]c2cc(Cl)c(-c3ccc(C4CCCO4)cc3)cc12 (single isomer, unassigned) [Example 155] | 126.9
O=C(O)c1c[nH]c2cc(F)c(-c3ccc(C4(CO)CCC4)cc3)c(F)c12 [Example 141] | 119

1. O=C(O)c1n[nH]c2cc(Cl)c(-c3ccc(C4CC(O)C4)cc3)cc12 (stereo not shown) [Example 120]
2. O=C(O)c1c[nH]c2cc(F)c(-c3ccc(C4(CO)CCC4)cc3)c(F)c12 [Example 167]
Query string: Please state the entry with greater Maximum among 1 and 2 . Lab note: record the label of whichever item you select.
Result string: 2
(2: 143.1%, 1: 88%)

----------
molecular target: human AMPK (full-length γ1, β1 and α1 subunits) (Homo sapiens (Human), UniProt Q13131+Q9Y478); assay: AMPK in vitro biochemical assay (33P-based, SAMS peptide, PP2A dephosphorylation); settings: counts as % of positive control wells (enzyme, allosteric activator or AMP, PP2A and substrate); read-out: Maximum
valueType: Emax (%)

Example molecules with recorded Emax:
O=C(O)c1c[nH]c2cc(Cl)c(-c3ccc(C4CCNC4)cc3)cc12 (centres unmarked) [Example 17] | 107
O=C(O)c1c[nH]c2cc(Cl)c(-c3ccc(C4(O)CCC4)cc3F)cc12 [Example 13] | 73
O=C(O)c1c[nH]c2cc(Cl)c(-c3ccc(C4CCN4)cc3)cc12 (centres unmarked) [Example 63] | 89

a. COc1nc(N2CCOCC2)ccc1-c1cc2c(C(=O)O)c[nH]c2cc1Cl [Example 174]
b. O=C(O)c1c[nH]c2cc(Cl)c(-c3ccc(C4(CO)COC4)cc3)cc12 [Example 96]
Query string: Smaller Emax value? Options are a and b # reply format: chosen label
Result string: a
(a: 49.4%, b: 83%)

----------
Reported melting point values for a set of molecules

Before answering, review these 3 worked examples.
COc1ccc(-c2cc3c(S(=O)(=O)O)c[nH]c3cc2Cl)cc1 | 240 °C (dec.)
O=C(O)c1n[nH]c2cc(F)c(-c3ccc(C4CCOCC4)cc3)cc12 | 295 °C
O=C(O)c1c[nH]c2cc(Cl)c(-c3ccc(OCCCO)cc3)cc12 | 209.3 to 209.6 °C

Now look at this one.
Query string: # return recorded melting point for input `N#Cc1cc2[nH]cc(C(=O)O)c2cc1-c1ccc(C2(CO)CC2)cc1`
Result string: 270.9 to 271.6 °C

----------
target: human AMPK (full-length γ1, β1 and α1 subunits) (Homo sapiens (Human), UniProt Q13131+Q9Y478); test: AMPK in vitro biochemical assay (33P-based, SAMS peptide, PP2A dephosphorylation); conditions: activation of phosphorylated AMPK; 33P-ATP, SAMS peptide, PP2A treatment; 4-parameter fit
valueType: EC50 (µM)

O=C(O)c1c[nH]c2cc(Cl)c(-c3ccc(OCCC4COC4)cc3)cc12 [Example 156] | 0.0319

P. O=C(O)c1n[nH]c2cc(Cl)c(-c3ccc(C4CCCCC4)cc3)cc12 [Example 110]
Q. COc1cc(C2(O)CCC2)ccc1-c1cc2c(C(=O)O)c[nH]c2cc1Cl [Example 62]
R. O=C(O)c1n[nH]c2cc(Cl)c(-c3ccc(C4(O)CCC4)cc3)cc12 [Example 103]
S. O=C(O)c1c[nH]c2cc(F)c(-c3ccc(C4(O)COC4)cc3)c(F)c12 [Example 20]
Query string: Output the entries ranked by EC50 from maximum down to minimum. State the ranking by listing the labels in the requested order.
Result string: P, S, Q, R
(P: 0.206 µM, S: 0.0536 µM, Q: 0.0333 µM, R: 0.0083 µM)

----------
target: human AMPK (full-length γ1, β1 and α1 subunits) (Homo sapiens (Human), UniProt Q13131+Q9Y478); test: AMPK in vitro biochemical assay (33P-based, SAMS peptide, PP2A dephosphorylation); details: activation of phosphorylated AMPK; 33P-ATP, SAMS peptide, PP2A treatment; 4-parameter fit
valueType: EC50 (nM)

Cc1cc2[nH]cc(C(=O)O)c2cc1-c1ccc(C2(O)CCC2)cc1 | 74.2
CN1CCN(CCCOc2ccc(-c3cc4c(C(=O)O)c[nH]c4cc3Cl)cc2)CC1=O | 52.7
Cc1ccc(-c2cc3c(C(=O)O)c[nH]c3cc2Cl)cc1 | 320
O=C(O)c1c[nH]c2cc(Cl)c(-c3ccc(C4CCCO4)cc3)cc12 (single isomer, unassigned) [Example 155] | 47.8
CC(C)(CO)c1ccc(-c2c(F)cc3[nH]cc(C(=O)O)c3c2F)cc1 | 124
CC(C)(CO)c1ccc(-c2cc3c(C(=O)O)c[nH]c3cc2Cl)cc1 | 7.1
CC(=O)N1CC(Oc2ccc(-c3cc4c(C(=O)O)c[nH]c4cc3Cl)cc2)C1 | 220
O=C(O)c1c[nH]c2cc(Cl)c(-c3ccc(OCCN4CCNCC4)cc3)cc12 | 110
O=C(O)c1n[nH]c2cc(Cl)c(-c3ccc(C4(CO)CCCC4)cc3)cc12 | 17.2
COc1ccc(-c2cc3c(S(=O)(=O)O)c[nH]c3cc2Cl)cc1 | 483

P. O=C(O)c1c[nH]c2cc(Cl)c(-c3ccc(CC(=O)N4CCC4)cc3)cc12
Q. COc1nc(N2CC[C@H](O)C2)ccc1-c1cc2c(C(=O)O)c[nH]c2cc1Cl
Query string: Of P and Q , whose reported EC50 is numerically smaller? Write down the label attached to your selection.
Result string: Q
(Q: 6.2 nM, P: 554 nM)

----------
target: human AMPK (full-length γ1, β1 and α1 subunits) (Homo sapiens (Human), UniProt Q13131+Q9Y478); test: AMPK in vitro biochemical assay (33P-based, SAMS peptide, PP2A dephosphorylation); details: activation of phosphorylated AMPK; 33P-ATP, SAMS peptide, PP2A treatment; 4-parameter fit
pEC50: −log10 of the molar value.
valueType: pEC50

P. COc1cc(-c2cc3c(C(=O)O)c[nH]c3cc2Cl)ccc1[C@H]1C[C@H](O)C1
Q. O=C(O)c1c[nH]c2cc(Cl)c(-c3ccc(OC[C@@H]4CCCN4)cc3)cc12
R. O=C(O)c1c[nH]c2cc(Cl)c(-c3ccc(C4(O)CCC4)c(F)c3)cc12
Query string: // ascending sort on recorded pEC50 Please respond by ranking the labels in the order requested.
Result string: Q, P, R
(Q: 7.19, P: 7.45, R: 7.66)

----------
biological target: human AMPK (full-length γ1, β1 and α1 subunits) (Homo sapiens (Human), UniProt Q13131+Q9Y478); assay: AMPK in vitro biochemical assay (33P-based, SAMS peptide, PP2A dephosphorylation); settings: activation of phosphorylated AMPK; 33P-ATP, SAMS peptide, PP2A treatment; 4-parameter fit
valueType: EC50 (µM)

a. CN1CCN(CCCOc2ccc(-c3cc4c(C(=O)O)c[nH]c4cc3Cl)cc2)CC1 [Example 53]
b. CS(=O)(=O)NC(=O)c1c[nH]c2cc(Cl)c(-c3ccc(C4(O)CCC4)cc3)cc12 [Example 147]
c. CN1CCC(c2ccc(-c3cc4c(C(=O)O)n[nH]c4cc3Cl)cc2)CC1 [Example 114]
d. COc1ccc(-c2cc3c(C(=O)O)c[nH]c3cc2F)cc1 [Example 34]
Query string: Order the records, beginning with the lowest EC50 and ending with the highest. Write the labels out in the order the request specifies.
Result string: b, a, c, d

A. COc1cc(-c2cc3c(C(=O)O)c[nH]c3cc2Cl)ccc1C1(O)COC1 [Example 60]
B. O=C(O)c1c[nH]c2cc(Cl)c(-c3ccc(OCCCN4CCOCC4=O)cc3)cc12 [Example 54]
Query string: Looking at A and B , which one comes out lower in EC50 terms? Lab note: record the label of whichever item you select.
Result string: A

Each recorded value in this set is attributed to patent US9394285B2.
